Measured pIC50 by item
Molecular target: Glutamate receptor ionotropic, AMPA (Rattus norvegicus, UniProt P19490+P19491+P19492+P19493)
Assay: Binding affinity for AMPA receptor using [3H]AMPA
# pIC50 = -log10(concentration in molar units)

>  <molecule>
NC(Cc1onc(O)c1-c1ccccc1)C(=O)O (stereo unspecified)

>  <pIC50>
4.41

$$$$

Record Cc1c(O)noc1CC(N)C(=O)O (stereo unspecified) . Reported pIC50: 6.49

Record CCCCc1c(C[C@H](N)C(=O)O)o[nH]c1=O . Reported pIC50: 6.32

Record CCCCCc1c(O)noc1CC(N)C(=O)O (stereo unspecified) . Reported pIC50: 4.96

Record N[C@@H](Cc1cc(=O)[nH]o1)C(=O)O . Reported pIC50: 6.10

Record N[C@@H](Cc1onc(O)c1-c1ccccc1)C(=O)O . Reported pIC50: 4.64

* * *

Species: Rattus norvegicus
Assay: Excitatory activity in the rat cortical slice model.
Format: functional, organism-based
Measured log10 EC50 by item
Each number you see is log10 of EC50, and the unit inside the log is µM.

>  <compound>
N[C@@H](Cc1onc(O)c1-c1ccccc1)C(=O)O

>  <log10 EC50>
2.60

$$$$

# ---- query compound ----
Record CCCCCc1c(O)noc1CC(N)C(=O)O (stereo unspecified) . Reported log10 EC50: 2.80

* * *

Species: Rattus norvegicus
Assay: Excitatory activity in the rat cortical slice model.
Format: functional, organism-based
pEC50: −log10 of the molar value.
Measured pEC50 by item

// below: answered compounds
>  <compound>
NC(Cc1onc(O)c1-c1ccccc1)C(=O)O (centres undefined)

>  <pEC50>
3.23

$$$$
>  <compound>
CCCCCCc1c(O)noc1CC(N)C(=O)O (centres undefined)

>  <pEC50>
< 3.00

$$$$
>  <compound>
N[C@@H](Cc1cc(=O)[nH]o1)C(=O)O

>  <pEC50>
3.48

$$$$
>  <compound>
CCCCCCc1c(O)noc1C[C@@H](N)C(=O)O

>  <pEC50>
< 3.00

$$$$
>  <compound>
CCCCCCCc1c(O)noc1CC(N)C(=O)O (centres undefined)

>  <pEC50>
< 3.30

$$$$

Record Cc1c(O)noc1CC(N)C(=O)O (centres undefined) . Reported pEC50: 4.74

Record N[C@H](Cc1onc(O)c1-c1ccccc1)C(=O)O . Reported pEC50: < 3.00

Record CCCCCCc1c(O)noc1C[C@H](N)C(=O)O . Reported pEC50: < 3.00

Record CCCCCCCCc1c(O)noc1CC(N)C(=O)O (centres undefined) . Reported pEC50: < 3.30
